Catalogue of molecules with associated TGI
# System: MOLT-4 leukemia
# METHOD_SUMMARY: NCI tumour cell line growth inhibition, 48 h

[[record]]
molecule = "O=C1Oc2ccccc2C(=O)/C1=C/N1C(=O)N/C(=C\\c2cccc(O)c2)C1=O"
assay_system = "MOLT-4 leukemia"
endpoint_value = "> 100 µM"

[[record]]
molecule = "ICCC(c1ccccc1)(c1ccccc1)c1ccccc1"
assay_system = "MOLT-4 leukemia"
endpoint_value = "8.97 µM"

[[record]]
molecule = "CCOC(=O)N1N=NC2C3OC(C[C@@]3(C#N)OC(C)=O)[C@H]21 (stereo partly specified)"
assay_system = "MOLT-4 leukemia"
endpoint_value = "> 100 µM"


Query: Looking for the measured TGI of Cc1nc(-c2cc3c(ccc4ccccc43)oc2=O)cc2c1c(=O)oc1ccc3ccccc3c12 , can you help?
Reply: > 100 µM

Query: Looking for the measured TGI of CC1(c2nc3ccccc3[nH]2)CCC(C(N)=O)C(C)(C)O1 (stereo unspecified) , can you help?
Reply: > 100 µM

Query: Looking for the measured TGI of CC1=C(C(=O)CC(=O)C(=O)Nc2ccccc2)Sc2ccccc2N1 , can you help?
Reply: > 100 µM

###

# Tested on: OVCAR-5 ovarian
# METHOD_SUMMARY: NCI tumour cell line growth inhibition, 48 h
OBSERVABLE: TGI

Example entries and their recorded answers appear below.
[[record]]
molecule = "COc1ccc2c(c1)sc1nc(-c3ccccc3)c(-c3ccc(O)c(OC)c3)n12"
endpoint_value = "> 100 µM"

[[record]]
molecule = "O=C1Oc2ccccc2C(=O)/C1=C/N1C(=O)N/C(=C\\c2cccc(O)c2)C1=O"
endpoint_value = "> 100 µM"

[[record]]
molecule = "CC1(c2nc3ccccc3[nH]2)CCC(C(N)=O)C(C)(C)O1 (stereo unspecified)"
endpoint_value = "> 100 µM"

[[record]]
molecule = "CN(C)C(=O)c1cc2cnc(Nc3ccc(-c4csc5c(=O)cc(N6CCNCC6)oc45)cc3)nc2n1C1CCCC1"
endpoint_value = "5.11 µM"

[[record]]
molecule = "CC(C)(C)OC(=O)NC1CCC[C@H]1O (stereo partly specified)"
endpoint_value = "> 100 µM"


Lab note: next molecule to report on.
Query: Notebook: pull reported TGI for OVCAR-5 ovarian, entry CO[C@H]1C[C@@H]2CC[C@@H](C)[C@@](O)(O2)C(=O)C(=O)N2CCCC[C@H]2C(=O)O[C@H]([C@H](C)C[C@@H]2CC[C@@H](OP(C)(C)=O)[C@H](OC)C2)CC(=O)[C@H](C)/C=C(\C)[C@@H](O)[C@@H](OC)C(=O)[C@H](C)C[C@H](C)/C=C/C=C/C=C/1C
Reply: 27.6 µM

###

# System: MOLT-4 leukemia
# METHOD_SUMMARY: NCI tumour cell line growth inhibition, 48 h; in the data active = GI50 below about 0.43 µM; inactive = the rest
Where a SMILES comes first, the peptide text is derived from it. [ ]: non-standard residue; d: D form. NMeY = CN[C@@H](Cc1ccc(O)cc1)C(=O)O; dNMeF = CN[C@H](Cc1ccccc1)C(=O)O; Sar = CNCC(=O)O
Bench note: report the call from Y = active, N = inactive

[[record]]
molecule = "COc1ccc2[nH]c(=O)c(/C=C/C(=O)/C=C/c3ccc(O)c(OC)c3)cc2c1"
assay_system = "MOLT-4 leukemia"
discrete_label = "N"

[[record]]
molecule = "COc1cccc(-n2ncc3c(N/N=C/c4ccc(S(C)(=O)=O)cc4)ncnc32)c1"
assay_system = "MOLT-4 leukemia"
discrete_label = "N"

[[record]]
molecule = "CNNC(=N\\S(=O)(=O)c1cc(C(=O)Nc2ccc(Cl)cc2)c(Cl)cc1SCc1ccccc1)/N=C/c1ccc([N+](=O)[O-])s1"
assay_system = "MOLT-4 leukemia"
discrete_label = "N"

[[record]]
molecule = "CC[C@H](C)[C@@H]1NC(=O)[C@H](Cc2ccc(O)cc2)N(C)C(=O)[C@H](Cc2ccccc2)NC(=O)CN(C)C(=O)[C@@H]2CCCN2C(=O)[C@@H](Cc2ccccc2)N(C)C(=O)[C@H](CC(C)C)NC1=O (cyclo(F[NMeY]IL[dNMeF]P[Sar]))"
assay_system = "MOLT-4 leukemia"
discrete_label = "Y"

[[record]]
molecule = "CCC[CH2][Ge]([CH2]CCC)([CH2]CCC)[O]C(=O)C(OC)c1ccccc1 (stereo unspecified)"
assay_system = "MOLT-4 leukemia"
discrete_label = "N"


Consider now this further molecule.
Query: Look up the recorded call for CCC[CH2][Sn]([CH2]CCC)([O]C(=O)c1cc(OC)c(OC)cc1OC)[O]C(=O)c1cc(OC)c(OC)cc1OC in this test.
Reply: N

###

# Tested on: HT29 colon
# METHOD_SUMMARY: NCI tumour cell line growth inhibition, 48 h
OBSERVABLE: TGI

Example entries and their recorded answers appear below.
[[record]]
compound = "ICCC(c1ccccc1)(c1ccccc1)c1ccccc1"
observable = "TGI"
endpoint_value = "9.07 µM"

[[record]]
compound = "COc1cc2nc(N3CCCC3)nc(Nc3ccccc3)c2cc1OC"
observable = "TGI"
endpoint_value = "3.11 µM"

[[record]]
compound = "CNNC(=N\\S(=O)(=O)c1cc(C(=O)Nc2ccc(Cl)cc2)c(Cl)cc1SCc1ccccc1)/N=C/c1ccc([N+](=O)[O-])s1"
observable = "TGI"
endpoint_value = "> 100 µM"


Query: Looking for the measured TGI of O=C(Cc1ccccc1)NNc1nc(NNC(=O)c2ccncc2)nc(Nc2ccccc2)n1 , can you help?
Reply: > 10 µM

Query: Looking for the measured TGI of O=C(O)C[O][Sb][O]CC(=O)O , can you help?
Reply: > 100 µM

Query: Looking for the measured TGI of CCC1(C(=O)OC)CCc2c(OC)ccc(OC)c2C1=O (configuration not stated) , can you help?
Reply: > 100 µM

Query: Looking for the measured TGI of O=C1OC(C2=CC(=O)c3ccccc3C2=O)C(Cl)=C1Cl (configuration not stated) , can you help?
Reply: > 100 µM

###

# Test system: ACHN renal
# METHOD_SUMMARY: NCI tumour cell line growth inhibition, 48 h; in the data active means GI50 below about 0.43 µM; inactive means the rest
Bench note: report the call from Yes (active), No (inactive)

[[record]]
molecule = "CO/N=C(/COc1c(-c2ccccc2)oc2ccccc2c1=O)c1ccc(OC)cc1"
discrete_label = "No"

[[record]]
molecule = "CC1(C)CC(OCCCC[P+](c2ccccc2)(c2ccccc2)c2ccccc2)CC(C)(C)N1O"
discrete_label = "No"


Query: Look up the recorded call for COc1cc(Cn2ccc3c2-c2oncc2CC3)cc(OC)c1 in this test.
Reply: No

Query: Look up the recorded call for O=c1oc2ccc(Cl)cc2c(=O)n1-c1cc(C(F)(F)F)cc(C(F)(F)F)c1 in this test.
Reply: Yes

Query: Look up the recorded call for Nc1ccn(C2CC(O)C(CO)O2)c(=O)n1 (centres undefined) in this test.
Reply: No

###

# System: SW-620 colon
# METHOD_SUMMARY: NCI tumour cell line growth inhibition, 48 h
Catalogue of compounds with associated TGI

[[record]]
compound = "COc1ccc([C@H]2C=C(c3cc(F)c(Cl)cc3Cl)NC(=S)N2)cc1"
assay_system = "SW-620 colon"
endpoint_value = "> 100 µM"

[[record]]
compound = "COc1cccc(-n2ncc3c(N/N=C/c4ccc(S(C)(=O)=O)cc4)ncnc32)c1"
assay_system = "SW-620 colon"
endpoint_value = "> 25 µM"


Query: Looking for the measured TGI of CCCNC(C#N)c1ccc(OCCCCCCCCCCOc2ccc(C(C#N)NCCC)cc2)cc1 (stereo not drawn) , can you help?
Reply: > 100 µM

###

# System: SNB-75 CNS
# METHOD_SUMMARY: NCI tumour cell line growth inhibition, 48 h
OBSERVABLE: log10 TGI (log10 of the value in µM)
Hello, just confirming the data are log10 of TGI with units of µM.

Query: Looking for the measured log10 TGI of Cc1ncc(C(=O)Nc2ccc(CN3CCN(C)CC3)c(C(F)(F)F)c2)cc1C#Cc1cnc(N)c2ncccc12 , can you help?
Reply: 0.35

Query: Looking for the measured log10 TGI of Nc1ncnc2c(C3OC(CO)C(O)C3O)scc12 (stereo not drawn) , can you help?
Reply: 0.74

Query: Looking for the measured log10 TGI of Cn1c(Sc2ccc(-c3cccnc3)n2C)ccc1-c1cccnc1 , can you help?
Reply: 1.67

Query: Looking for the measured log10 TGI of COc1cc2c(c(OC)c1OC)-c1ccc(SC)c(=O)cc1[C@@H](NCc1cccc(C#N)c1)CC2 , can you help?
Reply: -1.25

Query: Looking for the measured log10 TGI of CC(C)[Si](OC1=C(C(=O)N(C)c2ccccc2Cl)CCCC1)(C(C)C)C(C)C , can you help?
Reply: 1.44

Query: Looking for the measured log10 TGI of O=C(O)Cc1cccc2c1OC(c1ccccc1)C(C(=O)c1ccccc1)C2=O (stereo not drawn) , can you help?
Reply: 1.71

Query: Looking for the measured log10 TGI of CC1(C)N=C(N)N=C(N)N1c1cccc(CCCCc2ccccc2)c1 , can you help?
Reply: 1.21

Query: Looking for the measured log10 TGI of CC(C)=C[C@@H]1C[C@H](C)c2c(O)cc(C)c3c2C1=C(C)C(=O)C3=O , can you help?
Reply: 1.50
